# targetEntity: UniProtKB P42574
# Sequence (P42574 29-175 limits assumed): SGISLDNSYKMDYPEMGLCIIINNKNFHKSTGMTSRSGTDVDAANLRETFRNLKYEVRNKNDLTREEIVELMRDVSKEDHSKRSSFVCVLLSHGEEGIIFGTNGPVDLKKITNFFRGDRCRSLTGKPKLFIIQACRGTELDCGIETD
# Sequence (P42574 176-277 limits assumed): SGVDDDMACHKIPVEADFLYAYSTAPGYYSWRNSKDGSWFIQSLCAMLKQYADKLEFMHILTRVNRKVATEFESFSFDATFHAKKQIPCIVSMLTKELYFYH
# protocolSummary: Compound was evaluated for potent inhibition of caspase-3
resultType: k2 (M⁻¹ s⁻¹)

Example compounds with recorded k2:
In [3]: df
Out[3]:
                                 smilestext  unitlabel  experimentalvalue
0  CC(C)[C@H](NC(=O)[C@H](CCC(=O)O)NC(=O)[C@H](CC(=O)O)NC(=O)OCc1ccccc1)C(=O)NN(CC(=O)O)C(=O)/C=C/C(=O)OCc1ccccc1    M⁻¹ s⁻¹            1.7e+06
1  CCOC(=O)/C=C/C(=O)N(CC(=O)O)NC(=O)[C@@H](NC(=O)[C@H](CCC(=O)O)NC(=O)[C@H](CC(=O)O)NC(=O)OCc1ccccc1)C(C)C    M⁻¹ s⁻¹           2.13e+06
2  CC(C)C[C@H](NC(=O)OCc1ccccc1)C(=O)N[C@@H](CCC(=O)O)C(=O)N[C@H](C(=O)NN(CC(=O)O)C(=O)/C=C/C(=O)N(C)Cc1ccccc1)[C@@H](C)O    M⁻¹ s⁻¹               6000
3  CC(C)[C@H](NC(=O)[C@H](CCC(=O)O)NC(=O)[C@H](CC(=O)O)NC(=O)OCc1ccccc1)C(=O)NN(CC(=O)O)C(=O)/C=C/C(=O)N(C)Cc1ccccc1    M⁻¹ s⁻¹           2.64e+06
4  CC(C)C[C@H](NC(=O)OCc1ccccc1)C(=O)N[C@@H](CCC(=O)O)C(=O)N[C@H](C(=O)NN(CC(=O)O)C(=O)/C=C/C(=O)OCc1ccccc1)[C@@H](C)O    M⁻¹ s⁻¹               4600

(A) CC(C)[C@H](NC(=O)[C@H](CCC(=O)O)NC(=O)[C@H](CC(=O)O)NC(=O)OCc1ccccc1)C(=O)NN(CC(=O)O)C(=O)/C=C/C(=O)NCc1ccccc1
(B) CCOC(=O)/C=C/C(=O)N(CC(=O)O)NC(=O)[C@@H](NC(=O)[C@H](CCC(=O)O)NC(=O)[C@H](CC(C)C)NC(=O)OCc1ccccc1)[C@@H](C)O
Prompt: Would you mind telling me which has the lower recorded k2 between A and B ? Pick one; state its label.
Completion: B
